test system: NCI-H522 lung; test: NCI-60 one-dose screen, 48 h (100 = growth as untreated, 0 = no growth, -100 = all killed); settings: 10 µM unless noted
This is part of a sample that, as a whole, favours compounds with a hit. Of some 83,000 tested, about 20% had one in any assay.
measure: growth (%)
Please give a number only; it is taken to be in %.

In the examples that follow, each entry is paired with its recorded growth.
CNC(=O)c1cc(Oc2ccc3nc(NC(=O)Nc4ccc(N5CCC(N(C)C)CC5)cc4)sc3c2)ccn1 ... 117
NS(=O)(=O)c1ccc(Nc2nc3n[nH]c(Nc4ccccc4)c3c(=O)[nH]2)cc1 ... 90.4
CS(=O)(=O)c1c(Nc2ccccc2)n[nH]c1N ... 100

Value of growth reported for the compound CS(CCCCN=C=S)=NC(=O)c1c(F)c(F)c(F)c(F)c1F (stereo not given) is 20.6

Value of growth reported for the compound CS(=O)(CCCCN=C=S)=NC(=O)c1c(F)c(F)c(F)c(F)c1F (stereo not given) is 57

Value of growth reported for the compound `O=c1ccc2cc3ccccc3cc2[nH]1` is 98.8

Value of growth reported for the compound `O=C1C=CC(=O)c2c1nc1n2CCCC1` is 72.5

Value of growth reported for the compound `CCOC(=O)c1c2c(n3ccc(NC(=O)CCN4CCCCC4)cc13)C(=O)c1ncccc1C2=O` is 5.07

Value of growth reported for the compound `COc1cnc2c(c1)C(=O)c1c-2n(CCCN2CCNCC2)c(=O)c2cc([N+](=O)[O-])ccc12` is -48.2

Value of growth reported for the compound `C[C@]12C[C@@H](c3ccoc3)OC(=O)[C@@H]1CC[C@]1(C)[C@@H]2CC[C@@H](O)[C@]1(C)O` is 55.5

###

System: COLO 205 colon
Experiment: NCI-60 one-dose screen, 48 h (100 = growth as untreated, 0 = no growth, -100 = all killed)
Conditions: 10 µM unless noted
Method: Cells are grown in 96 well plates and exposed to the test compound for 48 hours. Compounds are tested at a single concentration, which is 10^-5 M for most compounds. The reported endpoint is percent growth (GI% or GIPRCNT), where numbers from 0 - 100% represent growth inhibition, and numbers from -100% - 0 represent cell death. For example, a value of 40 represents 60% growth inhibition. A value of 0 means no net growth occurred over the course of the experiment. […]
This is part of a sample that, as a whole, favours compounds with a hit. Of some 83,000 tested, about 20% had one in any assay.
Note: every record was labeled by where its growth sits among bucket A = under -30%, bucket B = from -30% up to 80%, bucket C = 80% and over

Consider the following illustrative entries.
COc1ccc(N(Cc2cc(OC)c(OC)c(OC)c2)C2OC(=O)c3ccccc32)cc1 (stereo not drawn) ... bucket B
OC(c1cc(-c2ccccc2)nc2ccc(Cl)cc12)C1CCCCN1 (stereo not drawn) ... bucket A
CC1=N/C(=C\c2cccc(Br)c2)C(=O)O1 ... bucket C
O=C(CN1CCN(c2cc3c(cc2F)c(=O)c(C(=O)O)cn3C2CC2)CC1)Nc1nc(-c2ccc(Cl)cc2)cs1 ... bucket B
COc1ccc(/C=N\NC(=O)c2ccncc2)cc1O ... bucket C
CCCCCCCCOC(=O)CC[C@@H](C)[C@H]1CC[C@H]2[C@@H]3[C@H](OC(=O)CCN)C[C@@H]4C[C@H](OC(=O)CCN)CC[C@]4(C)[C@H]3C[C@H](OC(=O)CCN)[C@]12C ... bucket B

Which growth band matches `CNCc1cccc2c1OCCOCCOCCN(C)S(=O)(=O)c1ccc(cc1)-c1cnc(N)c(n1)C(=O)N2` ?
bucket B

Which growth band matches `Cc1ccc2cnc(N)c(C#Cc3cncc(C(=O)Nc4ccc(CN5CCN(C)CC5)c(C(F)(F)F)c4)c3)c2c1` ?
bucket A

Which growth band matches `O=C(C[C@@H](C(=O)NCc1cccc(C(F)(F)F)c1)N1C(=O)[C@@H](N2C(=O)OC[C@@H]2c2ccccc2)[C@H]1/C=C/c1ccccc1)NC1CCN(Cc2ccccc2)CC1` ?
bucket B

Which growth band matches `Cc1ccc(NC(=O)c2sc3nc4c(cc3c2N)C(=O)CCC4)cc1C` ?
bucket B

Which growth band matches `C/C(=C(/c1ccc(O)cc1)c1ccc(Cl)cc1)c1ccccc1` ?
bucket A

Which growth band matches `O=C1C[C@H](Sc2nc(-c3ccc(F)cc3)cc(C(F)(F)F)n2)[C@H]2CO[C@@H]1O2` ?
bucket B

Which growth band matches `c1ccc(-c2nc(N3CCOCC3)c3c4c(sc3n2)CCCCC4)nc1` ?
bucket B

Which growth band matches `COc1ccc(OCC(=O)Nc2ccc(-c3nc4ccccc4s3)cc2C)cc1` ?
bucket C

###

system: SF-539 CNS; assay: NCI-60 one-dose screen, 48 h; conditions: 10 µM unless noted
The panel holds about 83,000 compounds, 20% with a hit somewhere; the sample as a whole holds those more often. The source made the active and inactive calls. The calls were made as follows: active = growth percent below 10; inactive = the rest.
Would you mind answering with one of these outcomes? true (active), false (inactive)

Consider the following illustrative entries.
COc1ccc(S(=O)(=O)NCCCNc2nccc(-c3c(-c4cccc(N)c4)nc4sccn34)n2)cc1 ... false
C=C1C(=O)O[C@H]2[C@H]1CC/C(Cn1cc(Cc3c[nH]c4ccccc34)nn1)=C\CC[C@@]1(C)O[C@@H]21 ... true
CCCCN(CC)CCCCCCCCCCN1CCCc2cc(OC)ccc21 ... false
CCCCCCCCCCCCCCCCCCNC(=O)[C@H]1CSC(c2ccc(F)c(OC)c2)N1 (stereo partly specified) ... true

State the result this test recorded for `NS(=O)(=O)N(c1cc(C(F)(F)F)cc(C(F)(F)F)c1)C1CCN(Cc2ccc(F)cc2)CC1` .
false

State the result this test recorded for `CN1CCN(Cc2ccc(NC(=O)c3[nH]ncc3Nc3ncnc4[nH]ccc34)cc2)CC1` .
true

State the result this test recorded for `COc1ccc(-c2cc(NC(=O)Nc3ccc(O)cc3)no2)cc1` .
false

State the result this test recorded for `O=C1/C(=C/c2ccccc2)CN(CCC(=O)N2C/C(=C\c3ccccc3)C(=O)/C(=C/c3ccccc3)C2)C/C1=C\c1ccccc1` .
false

###

Listing of entries alongside the reported growth.
tested on: SN12C renal; test: NCI-60 one-dose screen, 48 h (100 = growth as untreated, 0 = no growth, -100 = all killed); conditions: 10 µM unless noted
The panel holds about 83,000 compounds, 20% with a hit somewhere; the sample as a whole holds those more often. Active and inactive are the calls of the source. How the source made its calls: active means growth percent below 10; inactive means the rest.

In the examples that follow, each entry is paired with its recorded growth.
O=C(O)c1c([N+](=O)[O-])cnc2ccccc12 ... 97.2% (inactive)
CSc1nc2sc3c(c2c(=O)n1-c1ccc(C(C)C)cc1)CCC(=O)C3 ... 6.68% (active)
c1ccc(-c2nc(N3CCOCC3)c3c4c(sc3n2)CCCCC4)nc1 ... 69% (inactive)

Value of growth reported for the compound `O=C(/C=C\c1ccc2ccccc2n1)c1cc(Cl)ccc1O` is 110% (inactive)

Value of growth reported for the compound `CNc1cc2nc3cc(NC)c(C)cc3cc2cc1C` is 14.2% (inactive)

Value of growth reported for the compound O=C1Nc2ccc(Br)cc2C12CC(c1ccccc1)=NN2 (configuration not stated) is 61.7% (inactive)

Value of growth reported for the compound `COc1cc(OC)c(/C=C/C(=O)c2c(OC)cc(OC)cc2OC)c(OC)c1` is 22.6% (inactive)

Value of growth reported for the compound C=C1CC2(OC1=O)C(=O)N(CCCCCCCN1C(=O)C3(CC(=C)C(=O)O3)c3ccccc31)c1ccccc12 (configuration not stated) is -50.9% (active)

Value of growth reported for the compound `O=c1c2cccc3c(Nc4ccccn4)ccc(c32)c2nc3ccccc3n12` is 71.7% (inactive)

Value of growth reported for the compound `CNC(=O)c1cc(Oc2ccc3nc(NC(=O)Nc4ccc(N5CCC(N(C)C)CC5)cc4)sc3c2)ccn1` is 92.3% (inactive)

Value of growth reported for the compound `Cc1ccc(/C=C2\Oc3cc(OCC(=O)c4ccc(Cl)cc4)ccc3C2=O)cc1` is 116% (inactive)

Value of growth reported for the compound `CCn1cc2c(cc1=O)-c1nc3ccccc3c3ccnc(c13)C2=O` is 16.5% (inactive)

Value of growth reported for the compound `O=C(O)c1cccc2c1-c1ccccc1C2=O` is 84.2% (inactive)

Value of growth reported for the compound `Nc1cc(O)cc2cccnc12` is 72.5% (inactive)

Value of growth reported for the compound `O=S(=O)(NCCCNc1cc(-c2cn(-c3ccccc3)nc2-c2ccccc2)ccn1)c1ccc(C(F)(F)F)cc1` is 63% (inactive)

Value of growth reported for the compound `NC(N)=Nc1ccc(S(=O)(=O)O)cc1` is 90.8% (inactive)

Value of growth reported for the compound `C[C@]12C[C@@H](c3ccoc3)OC(=O)[C@@H]1CC[C@]1(C)[C@@H]2CC[C@@H](O)[C@]1(C)O` is 64.1% (inactive)
